Reported total protein half-life in vivo values follow for various sequences
# runDescription: total protein half-life in vivo (active degradation + dilution); higher = more stable protein
# recordedConditions: E. coli NCM3722 delta-hslV; growth: N-lim chemostat; doubling time 6 h
recordedMetric: total protein half-life in vivo (h)

INSERT INTO results (macromoleculesequence, recordedmetric, valuemeasured) VALUES
  ('MSETAKKVIVGMSGGVDSSVSAWLLQQQGYQVEGLFMKNWEEDDGEEYCTAAADLADAQAVCDKLGIELHTVNFAAEYWDNVFELFLAEYKAGRTPNPDILCNKEIKFKAFLEFAAEDLGADYIATGHYVRRADVDGKSRLLRGLDSNKDQSYFLYTLSHEQIAQSLFPVGELEKPQVRKIAEDLGLVTAKKKDSTGICFIGERKFREFLGRYLPAQPGKIITVDGDEIGEHQGLMYHTLGQRKGLGIGGTKEGTEEPWYVVDKDVENNILVVAQGHEHPRLMSVGLIAQQLHWVDREPFTGTMRCTVKTRYRQTDIPCTVKALDDDRIEVIFDEPVAAVTPGQSAVFYNGEVCLGGGIIEQRLPLPV', 'total protein half-life in vivo', 4.73),
  ('MSDERYQQRQQRVKEKVDARVAQAQDERGIIIVFTGNGKGKTTAAFGTATRAVGHGKKVGVVQFIKGTWPNGERNLLEPHGVEFQVMATGFTWDTQNRESDTAACREVWQHAKRMLADSSLDMVLLDELTYMVAYDYLPLEEVVQALNERPHQQTVIITGRGCHRDILELADTVSELRPVKHAFDAGVKAQIGIDY [P0A9H5]', 'total protein half-life in vivo', 4.27),
  ('MKFKTNKLSLNLVLASSLLAASIPAFAVTGDTDQPIHIESDQQSLDMQGNVVTFTGNVIVTQGTIKINADKVVVTRPGGEQGKEVIDGYGKPATFYQMQDNGKPVEGHASQMHYELAKDFVVLTGNAYLQQVDSNIKGDKITYLVKEQKMQAFSDKGKRVTTVLVPSQLQDKNNKGQTPAQKKGN [P0ADV1]', 'total protein half-life in vivo', 6.38);
